- MEASUREMENT PROTOCOL: Dissolution kinetics via microscopic analysis (video-microscopy of one individual crystal in water)
- Format: physicochemical
- REPORTED CONDITIONS: 100-200 μm, fully immersed in 10 μL of water
OBSERVED PROPERTY: k, constant of first order dissolution kinetic (crystal area over time) (s⁻¹)
Respond with the bare value in s⁻¹.

Here are 2 molecules together with their reported answers.
INSERT INTO measurements (molecule, readout_number) VALUES
  ('O.OC[C@H]1O[C@H](O)[C@H](O)[C@@H](O)[C@@H]1O [Glucose monohydrate, alpha-D-(+)-Glucose monohydrate]', 0.08),
  ('OC[C@H]1OC(O)[C@H](O)[C@@H](O)[C@@H]1O (stereo partly shown) [Anhydrous Glucose]', 0.14);

Entry "O.OC[C@H]1O[C@H](O)[C@H](O)[C@@H](O)[C@@H]1O.OC[C@H]1O[C@H](O)[C@H](O)[C@@H](O)[C@@H]1O.[Cl-].[Na+]" has what k, constant of first order dissolution kinetic (crystal area over time)? 0.19

Entry [Cl-].[Na+] [NaCl, sodium chloride] has what k, constant of first order dissolution kinetic (crystal area over time)? 0.21

* * *

Parameter: 10% dissolution reached at. Scope: all listed entries.
- MEASUREMENT PROTOCOL: Glucose NaCl kinetics of dissolution via refractometry
- Assay type: physicochemical
- REPORTED CONDITIONS: 60 mL of water, stirring, particle size 100-200 μm, average of three experiments
- Protocol: The (Glucose)2⋅NaCl⋅H2O co-crystals of Example 3 were tested for their dissolution behavior by refractometry. The equipment used was a RFM300+ refractometer by Bellingham and Stanley. The test samples were added to 60 mL of water, and the dissolution was measured under stirring at 50 rpm using a refractometer with one measurement/second for […]. Every dissolution experiment was performed three times and the average value was calculated. The particle size was 100-200 μm.
Respond with the bare value in s.

Here are 3 molecules together with their reported answers.
INSERT INTO results (molecule, readout_number) VALUES
  ('O.OC[C@H]1O[C@H](O)[C@H](O)[C@@H](O)[C@@H]1O [Glucose monohydrate, alpha-D-(+)-Glucose monohydrate]', 6),
  ('O.OC[C@H]1O[C@H](O)[C@H](O)[C@@H](O)[C@@H]1O.OC[C@H]1O[C@H](O)[C@H](O)[C@@H](O)[C@@H]1O.[Cl-].[Na+] [(Glucose)2•NaCl•H2O co-crystal, (α-D-Glucose)2⋅NaCl⋅H2O]', 6),
  ('[Cl-].[Na+] [NaCl, sodium chloride]', 4);

Moving on to another molecule below.
Entry OC[C@H]1OC(O)[C@H](O)[C@@H](O)[C@@H]1O (stereo partly shown) [Anhydrous Glucose] has what 10% dissolution reached at? 6

* * *

- MEASUREMENT PROTOCOL: Glucose NaCl kinetics of dissolution via refractometry
- Type: physicochemical
- REPORTED CONDITIONS: 60 mL of water, stirring, particle size 100-200 μm, average of three experiments
OBSERVED PROPERTY: 90% dissolution reached at (s)
Respond with the bare value in s.

Here are 3 compounds together with their reported answers.
INSERT INTO results (compound, readout_number) VALUES
  ('O.OC[C@H]1O[C@H](O)[C@H](O)[C@@H](O)[C@@H]1O.OC[C@H]1O[C@H](O)[C@H](O)[C@@H](O)[C@@H]1O.[Cl-].[Na+]', 25),
  ('OC[C@H]1OC(O)[C@H](O)[C@@H](O)[C@@H]1O (stereo partly shown) [Anhydrous Glucose]', 289),
  ('[Cl-].[Na+] [NaCl, sodium chloride]', 29);

Entry O.OC[C@H]1O[C@H](O)[C@H](O)[C@@H](O)[C@@H]1O [Glucose monohydrate, alpha-D-(+)-Glucose monohydrate] has what 90% dissolution reached at? 214
